Hello, the source for this data is patent US20250147039A1, in case you need it.

assay-info: Formation of 1,5-cz-[M(Lig)] from Lig and M^II ions (metal dependent click-zip) (Charts 6, 7)
Type: physicochemical
experimental-context: 1 hour at 80° C.; MOPS/NaOH buffer pH 7.0; TD728 in 50% i-PrOH; TD714 sum of two diastereoisomers

>  <smiles-representation>
C#Cc1cccc(CN2CCN(CC(=O)O)CCN(Cc3cc(Cl)cc(CN=[N+]=[N-])n3)CCN(CC(=O)O)CC2)n1

>  <reading-unit>
%

>  <conversion to 1,5-cz-[M(Lig)], Cd^II>
53

$$$$
>  <smiles-representation>
C#Cc1cccc(CN2CCN(CC(=O)O)CCN(Cc3cc(-c4ccccc4)cc(CN=[N+]=[N-])n3)CCN(CC(=O)O)CC2)n1

>  <reading-unit>
%

>  <conversion to 1,5-cz-[M(Lig)], Cd^II>
64

$$$$
>  <smiles-representation>
CC(C)(C)C#Cc1cccc(CN2CCN(CC(=O)O)CCN(Cc3cccc(CN=[N+]=[N-])n3)CCN(CC(=O)O)CC2)n1

>  <reading-unit>
%

>  <conversion to 1,5-cz-[M(Lig)], Cd^II>
2

$$$$
>  <smiles-representation>
CC(C)[Si](C#Cc1cccc(CN2CCN(CC(=O)O)CCN(Cc3cccc(CN=[N+]=[N-])n3)CCN(CC(=O)O)CC2)n1)(C(C)C)C(C)C

>  <reading-unit>
%

>  <conversion to 1,5-cz-[M(Lig)], Cd^II>
1

$$$$
>  <smiles-representation>
C#Cc1cccc(CN2CCN(CP(=O)(O)c3ccccc3)CCN(Cc3cccc(CN=[N+]=[N-])n3)CCN(CP(=O)(O)c3ccccc3)CC2)n1

>  <reading-unit>
%

>  <conversion to 1,5-cz-[M(Lig)], Cd^II>
92

$$$$
>  <smiles-representation>
C#Cc1cccc(CN2CCN(CC(=O)O)CCN(Cc3cccc(CN=[N+]=[N-])n3)CCN(CP(=O)(O)O)CC2)n1

>  <reading-unit>
%

>  <conversion to 1,5-cz-[M(Lig)], Cd^II>
89

$$$$

###

assay-info: Dissociation of chelates in aq. 6.0M HCl at 80° C. (acid decomplexation kinetic inertness) (Chart 17)
Format: physicochemical
experimental-context: 1 month
recorded-endpoint: fraction of intact chelate (%)

>  <smiles-representation>
O=C1C[N@@]2CC[N@]3CC[N@@](CC[N@](CC2)Cc2cccc(n2)-c2cnnn2Cc2cc(-c4ccccc4)cc(n2)C3)CC(=O)[O][Tm][O]1

>  <recorded-endpoint>
fraction of intact chelate

>  <quantitative-result>
69

$$$$
>  <smiles-representation>
O=C1C[N@@]2CC[N@]3CC[N@@](CC[N@](CC2)Cc2cccc(n2)-c2cnnn2Cc2cc(-c4ccccc4)cc(n2)C3)CC(=O)[O][Er][O]1

>  <recorded-endpoint>
fraction of intact chelate

>  <quantitative-result>
24

$$$$
>  <smiles-representation>
O=C1C[N@@]2CC[N@]3CC[N@@](CC[N@](CC2)Cc2cccc(n2)-c2cnnn2Cc2cc(-c4ccccc4)cc(n2)C3)CC(=O)[O][La][O]1

>  <recorded-endpoint>
fraction of intact chelate

>  <quantitative-result>
0

$$$$
>  <smiles-representation>
O=C([O-])CN1CCN2CCN(CC(=O)[O-])CCN(CC1)Cc1cccc(n1)-c1cnnn1Cc1cc(-c3ccccc3)cc(n1)C2.[Ca+2]

>  <recorded-endpoint>
fraction of intact chelate

>  <quantitative-result>
0

$$$$
>  <smiles-representation>
O=C([O-])CN1CCN2CCN(CC(=O)[O-])CCN(CC1)Cc1cccc(n1)-c1cnnn1Cc1cc(-c3ccccc3)cc(n1)C2.[Zn+2]

>  <recorded-endpoint>
fraction of intact chelate

>  <quantitative-result>
0

$$$$
>  <smiles-representation>
O=C1C[N@@]2CC[N@]3CC[N@@](CC[N@](CC2)Cc2cccc(n2)-c2cnnn2Cc2cc(-c4ccccc4)cc(n2)C3)CC(=O)[O][Nd][O]1

>  <recorded-endpoint>
fraction of intact chelate

>  <quantitative-result>
0

$$$$
